# Test system: DNA
# test-name: Binding affinity to calf thymus DNA assessed as thermal stability in BPE buffer at 2 uM
# Assay type: nucleic-acid assay
# stated-conditions: Bos taurus
quantity: ΔTm (°C)
Numbers only, in °C.

Past entries and their recorded results:
• N=C(N)NCc1c2ccccc2cc2ccccc12 = 6.1
• N=C(N)NCc1ccc2ccc3cccc4ccc1c2c34 = 8.1
• CCBr = 8.1
• N=C(N)NCCCCNCc1c2ccccc2cc2ccccc12 = 15.1
• NCc1ccccc1 [BENZYLAMINE] = 0

List reported ΔTm for each of these molecules:
1. NCc1c2ccccc2cc2ccccc12
2. NCCCCNCc1ccc2ccc3cccc4ccc1c2c34
3. N=C(N)NCc1ccc2c(c1)Cc1ccccc1-2
4. NCc1ccc2c(c1)Cc1ccccc1-2
5. NCc1cccs1
6. N=C(N)NCc1cccs1
7. CN1CCN(c2ccc3[nH]c(-c4ccc5[nH]c(-c6ccc(O)cc6)nc5c4)nc3c2)CC1

Response:
[3, 20.2, 0, 1, 0.1, 0.1, 9]
